endpointName: melting point

- Cl.O=c1oc2cc(N3CCCNCC3)ccc2cc1-c1cn2cccnc2n1 [Compound 186]: > 300 °C

Exercise: Give the reported melting point for this compound. CCCN1CCN(c2ccc3cc(-c4cn5cccnc5n4)c(=O)oc3c2)CC1 [Compound 109]
Key: 291 to 293 °C

Exercise: Please list melting point recorded for the compound Cc1cnc2nc(-c3cc4ccc(N5CCNCC5)cc4oc3=O)cn2c1 [Cpd 241]
Key: > 300 °C

Exercise: Look up and report measured melting point for this entry: C[C@H]1CN(c2ccc3cc(-c4ccncc4)c(=O)oc3c2)CCN1 [Compound 549]
Key: 210 to 213 °C

Exercise: Using known records, supply melting point for Cc1ccc2nc(-c3cc4ccc(N5CCNCC5)c(F)c4oc3=O)cn2c1 [Compound 156]
Key: 313 to 319 °C

Exercise: Input Cc1cc(F)c2nc(-c3cc4ccc(N5CCNC6(CCC6)C5)cc4oc3=O)cn2c1 [Compound 598] , output reported melting point.
Key: 244 to 254 °C
